# assay.info: Acute toxicity, oral, mice
# conditions: mouse, in vivo
measured.quantity: LD50

1. COc1ccc([C@@H]2Sc3c(Cl)cccc3N(CCN(C)C)C(=O)[C@@H]2OC(C)=O)cc1.Cl (single isomer, unassigned); ~1000 mg/kg
